Molecular target: 5'-nucleotidase (Homo sapiens)
Sequence (P21589 whole entry): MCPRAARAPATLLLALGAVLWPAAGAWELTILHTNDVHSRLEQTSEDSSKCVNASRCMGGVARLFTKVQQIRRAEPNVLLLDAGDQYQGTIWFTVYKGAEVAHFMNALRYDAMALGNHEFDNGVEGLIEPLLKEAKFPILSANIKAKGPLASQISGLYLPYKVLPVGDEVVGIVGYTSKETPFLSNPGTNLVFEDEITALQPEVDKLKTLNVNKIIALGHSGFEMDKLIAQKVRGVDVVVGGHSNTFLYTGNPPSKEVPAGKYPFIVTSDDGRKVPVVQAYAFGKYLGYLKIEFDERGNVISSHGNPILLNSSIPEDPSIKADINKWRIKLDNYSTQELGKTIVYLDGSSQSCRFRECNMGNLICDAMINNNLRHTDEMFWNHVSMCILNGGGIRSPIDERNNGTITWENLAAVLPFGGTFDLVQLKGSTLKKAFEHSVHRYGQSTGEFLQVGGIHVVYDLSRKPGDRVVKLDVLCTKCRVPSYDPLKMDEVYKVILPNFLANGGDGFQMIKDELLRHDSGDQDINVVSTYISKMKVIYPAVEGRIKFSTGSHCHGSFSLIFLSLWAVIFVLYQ
Experiment: Inhibition of recombinant human CD73 preincubated for 15 mins followed by AMP addition measured after 10 mins by LC/MS analysis
PROPERTY_LABEL: IC50 (nM)

In [3]: df
Out[3]:
                                        smi  property_label  observed
0  COCCOc1cc([C@@H](Oc2nn(C)c3nnc(-c4n[nH]c(=O)[nH]c4=O)cc23)C(F)F)ccn1            IC50      0.05
1  Cn1nc(O[C@H](c2ccnc(OCC(C)(F)F)c2)C(F)F)c2cc(-c3n[nH]c(=O)[nH]c3=O)nnc21            IC50      0.04
2  C[C@H](Nc1cc([C@@H](Oc2nn(C)c3nnc(-c4n[nH]c(=O)[nH]c4=O)cc23)C(F)F)ccn1)C(F)(F)F            IC50      0.04
3  C[C@@H](Nc1cc([C@@H](Oc2nn(C)c3nnc(-c4n[nH]c(=O)[nH]c4=O)cc23)C(F)F)ccn1)C(F)(F)F            IC50      0.04
